B1: CPEB3 Ribozyme (parent)
chain: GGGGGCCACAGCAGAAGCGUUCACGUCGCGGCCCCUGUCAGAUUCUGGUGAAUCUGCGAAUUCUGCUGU

- Variants of: B1
- EXPERIMENTAL_PROTOCOL: self-cleavage, relative activity (ratio to wild type); higher = more cleavage; co-transcriptional
Answer False if self-cleavage is under 0.5, and True if it is 0.5 or more.

Solved entries:
| SEQUENCE_CHAIN | LABEL_CLASS |
| --- | --- |
| GGGAGCCACAGCAGAAGCGUUCACGUCGCGGCCCCUGUCAGAUUCUGGUGUAUCUGCGAAUUCUGCUGU | True |
| GGGGGCCACAGCAGAAGCGUUCGCGUCGCGGCCCCUGUCAGAUUCUGGUGAAUCUGCGAAUUGUGCUGU | True |
| GGGGGCUACAGCAGAAGCGUUCACGUCGCGGCUCCUGUCAGAUUCUGGUGAAUCUGCGAAUUCUGCUGU | True |
| GGGGUCCACGGCAGAAGCGUUCACGUCGCGGCCCCUGUCAGAUUCUGGUGAAUCUGCGAAUUCUGCUGU | True |
| GGGGGCCACAGCAGAAGCGUUCAUGUCGCGGCCCCUGUCAGAUUCUGGUGAAUCUGCGAAUUCUGCUCU | True |
| GGGGGCCACACCAGAAGCGUUCACGUCCCGGCCCCUGUCAGAUUCUGGUGAAUCUGCGAAUUCUGCUGU | False |

From here, focus on the item given below.
*Q* In plain terms: is recorded self-cleavage at least 0.5 for "GGGGGCCACAGCAGAAGCGUUCACGUCGCGGCCCCUGUCAGAUUCUGGUGAAUCUGCGAAUACCGCUGU" ?
*A* True
